Listing of entries alongside the reported Binding of serum SARS-yellow to looped/cyclic peptides of protein N of SARS-CoV Urbani.
test system: antibodies in sera from SARS patients (sera 1a, 1b, 2, 6, 37, 62, London, SARS-yellow, SARS-green); type: binding, human

- sequence_chain: "LALLLLDRLNQLESK"
  endpoint_value: 0.4
- sequence_chain: "ASAFFGMSRIGMEVT"
  endpoint_value: 0.6
- sequence_chain: "YKHWPQIAQFAPSAS"
  endpoint_value: 0.6
- sequence_chain: "ASLPYGANKEGIVWV"
  endpoint_value: 0.3
- sequence_chain: "GTRNPNNNAATVLQL"
  endpoint_value: 0.5

Please find the next sequence below.
What value of measured Binding of serum SARS-yellow to looped/cyclic peptides of protein N of SARS-CoV Urbani is listed for FGMSRIGMEVTPSGT ? 0.3

====

Listing of entries alongside the reported Binding of serum 6 to looped/cyclic peptides of protein X2 of SARS-CoV Urbani.
tested on: antibodies in sera from SARS patients (sera 1a, 1b, 2, 6, 37, 62, London, SARS-yellow, SARS-green); type: binding, human
Please give only the number in your answer, with no unit.

Reference set, count: 2
- sequence_chain: "SLYMAISPKFTTSLS"
  endpoint_value: 0.4
- sequence_chain: "KFTTSLSLHKLLQTL"
  endpoint_value: 0.4

Please find the next sequence below.
What value of measured Binding of serum 6 to looped/cyclic peptides of protein X2 of SARS-CoV Urbani is listed for IQQWIQFMMSRRRLL ? 0.4

====

test system: antibodies in sera from SARS patients (sera 1a, 1b, 2, 6, 37, 62, London, SARS-yellow, SARS-green); type: binding, human; design: unit not given here
Listing of entries alongside the reported Binding of serum 37 to looped/cyclic peptides of protein N of SARS-CoV Urbani.
Please give only the number in your answer, with no unit.

- sequence_chain: "QGVPINTNSGPDDQI"
  endpoint_value: 0.6
- sequence_chain: "NGGRNGARPKQRRPQ"
  endpoint_value: 0.6
- sequence_chain: "PAADMDDFSRQLQNS"
  endpoint_value: 0.6

Please find the next sequence below.
What value of measured Binding of serum 37 to looped/cyclic peptides of protein N of SARS-CoV Urbani is listed for PGSSRGNSPARMASG ? 0.6

====

tested on: antibodies in sera from SARS patients (sera 1a, 1b, 2, 6, 37, 62, London, SARS-yellow, SARS-green); format: binding, human
Listing of entries alongside the reported Binding of serum SARS-yellow to looped/cyclic peptides of protein M of SARS-CoV Urbani.
Please give only the number in your answer, with no unit.

Reference set, count: 5
- sequence_chain: "LVIGFLFLAWIMLLQ"
  endpoint_value: 0.7
- sequence_chain: "LACFVLAAVYRINWV"
  endpoint_value: 0.4
- sequence_chain: "LLEQWNLVIGFLFLA"
  endpoint_value: 0.4
- sequence_chain: "RSMWSFNPETNILLN"
  endpoint_value: 0.7
- sequence_chain: "VTLACFVLAAVYRIN"
  endpoint_value: 0.6

What value of measured Binding of serum SARS-yellow to looped/cyclic peptides of protein M of SARS-CoV Urbani is listed for AAVYRINWVTGGIAI ? 0.7

What value of measured Binding of serum SARS-yellow to looped/cyclic peptides of protein M of SARS-CoV Urbani is listed for WPVTLACFVLAAVYR ? 0.4
